assay: NCI Yeast Anticancer Drug Screen. Data for the cln2 rad14 strain (AID 165);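 further: 0% = growth equal to vehicle treated cultures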; conditions: S. cerevisiae cln2 rad14 strain, at 50.0 µM, active compounds read high
This is part of a sample that, as a whole, favours compounds with a hit. Of some 79,000 tested, about 15% had one in any assay.
Decide using growth inhibition: a value greater than or equal to -10% is 1 (yes), a smaller one is 0 (no).

Below, 6 compounds whose answers are already recorded.
CCCCOP(=O)(Nc1ccc(Cl)cc1)OCCCC = 1 (yes)
CC(C)C(O)(C(=O)OCC1=CC[N+]2([O-])CCC(O)C12)C(C)O (stereo not drawn) = 1 (yes)
O=NNc1ccc(C(F)(F)F)cn1 = 1 (yes)
CC(C)c1cccc(C(C)C)c1NC(=O)/C(CC(=O)CC(c1ccccc1)c1c(O)c2ccccc2oc1=O)=N/O (stereo not drawn) = 0 (no)
O=c1[nH]c(=O)n(Cl)c(=O)n1Cl = 1 (yes)
CCOP(=O)(CCN(C)C)OCC = 0 (no)

Now let's try a different one.
Q. growth inhibition >= -10% for [Cl][Co][Br].[NH-]CC[NH-].[NH-]CC[NH-] ?
A. 0 (no)

* * *

experiment: NCI Yeast Anticancer Drug Screen. Data for the bub3 strain (AID 167); conditions: S. cerevisiae bub3 mutant strain, at 50.0 µM, active compounds read high
Compounds without any hit were thinned out: in the full panel of roughly 79,000, 15% have a hit.
readout-type: growth inhibition (%)
Give bare numbers, in %.

# example entries with known answers
CC1=CC2OC3CC4OC(=O)/C=C/C=C/C(=O)OCC/C(C)=C/C(=O)OCC2(CC1O)C4(C)C31CO1 (stereo unspecified) = 91.8
CCCCS(=O)(=O)Cl = 29.8
COc1ccc(C)cc1C(=O)C[n+]1ccc2ccccc2c1 = -6.5
CCCCC(CC)COP(OCC(CC)CCCC)OCC(CC)CCCC (stereo unspecified) = -7.25
O=S(=O)(O)C(Br)(Br)Br = 7.25
O=P(O)(O)SP(=O)(O)O.[Zn+2] = -12.6
CCOP(=O)(O)C1CCCC(C)[N-]1.CCOP(=O)(O)C1CCCC(C)[N-]1.CCOP(=O)(O)C1CCCC(C)[N-]1.[Ti+3] (stereo unspecified) = -6.3
[NH-]C(CCC(N)=O)C(=O)O.[NH-]C(CCC(N)=O)C(=O)O.[Pd+2] (stereo unspecified) = -1.1

Each molecule below has a reported value. Please supply its growth inhibition.
1. C=C(C)CNC1=C(C)C(=O)C2=C(C1=O)[C@H](COC(N)=O)[C@]1(OC)[C@@H]3N[C@@H]3CN21
2. COC(=O)/C=C/c1ccc(Cl)cc1
3. O=[As](c1ccccc1)(c1ccccc1)c1ccc(Br)cc1

A.
1: 19.4; 2: -10.2; 3: 6.2

Each molecule below has a reported value. Please supply its growth inhibition.
1. CC(Cl)CN1CCCCC1 (stereo unspecified) (tested in a mixture with another compound)
2. C=CCOCN1c2cc(OC)c([C@@]3(C(=O)OC)C[C@@H]4CN(CCc5c3[nH]c3ccccc53)C[C@](O)(CC)C4)cc2[C@@]23CCN4CC=C[C@@](CC)([C@@H](OC(C)=O)[C@](O)(C(=O)OC)[C@H]12)[C@H]43
3. COCC1OC2OC3C(COC)OC(OC4C(COC)OC(OC5C(COC)OC(OC6C(COC)OC(OC7C(COC)OC(OC8C(COC)OC(OC1C(O)C2O)C(O)C8O)C(O)C7O)C(O)C6O)C(O)C5O)C(O)C4O)C(O)C3O (stereo unspecified) (tested in a mixture with another compound)
4. O=S1(=O)CCCCO1
5. CO[C@H]1C[C@H](O[C@H]2CC[C@@]3(C)[C@H](CC[C@@H]4[C@@H]3CC[C@]3(C)[C@@H](C5=CC(=O)OC5)CC[C@]43O)C2)O[C@H](C)[C@H]1O
6. NC(=O)c1cc([N+](=O)[O-])c(N(CCCl)CCCl)c([N+](=O)[O-])c1
7. CCOC(=S)S.[Pb]

A.
[3.2, -0.05, -18.8, -8.95, 14.6, -1.55, 26.2]

* * *

test: NCI Yeast Anticancer Drug Screen. Data for the rad50 strain (AID 155);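 further: 0% = growth of vehicle-only cultures of the same strain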; settings: S. cerevisiae rad50 strain growth inhibition; at 50.0 µM
Compounds without any hit were thinned out: in the full panel of roughly 79,000, 15% have a hit. The source made the active and inactive calls. Rule as the data show it: active = growth inhibition above about 70%; inactive = the rest.
Please state which outcome applies, choosing from TRUE (active), FALSE (inactive)

O=[N+]([O-])c1cccc([As](=O)(O)c2ccc(O)c([N+](=O)[O-])c2)c1 = FALSE
O=[N+]([O-])c1ccc(OCc2ccc(S(=O)(=O)F)cc2Cl)c(Cl)c1 = FALSE
Cc1ccc2nc(CCl)[nH]c2c1 = FALSE
Cc1ccc(NC(=O)/C=C/c2ccc([N+](=O)[O-])cc2)cc1S(=O)(=O)F = FALSE
CCC(OC(=O)C1C(C=C(C)C)C1(C)C)c1cc2c(cc1Cl)OCO2 (configuration not stated) = FALSE
CCN(CC)C(=S)Cl = FALSE

Q. Recorded test call requested for CNP(=S)(Oc1cc(Cl)c(Cl)cc1Cl)N1CCN(c2ccc(Cl)cc2)CC1 (configuration not stated)
A. FALSE

Q. Now consider COc1ccc(C(=O)OC2CC3CCC(C2)N3)cc1OC (configuration not stated) .
A. FALSE

Q. Now consider Nc1nc(=S)nc(N)[nH]1 .
A. FALSE

Q. Now consider CNCCc1ccc(O)c(O)c1 .
A. FALSE

Q. Now consider CC1(C)c2ccccc2C(c2ccccc2)(c2ccccc2)[N+]1(C)C .
A. FALSE

Q. Now consider N#CCC(=O)[O][Sn]([c]1ccccc1)([c]1ccccc1)[c]1ccccc1 .
A. TRUE

Q. Now consider O=C1NC(=O)C(Cc2ccc3c(c2)OCO3)C(=O)N1 .
A. FALSE

Q. Now consider CCCCCC[n+]1noc(N)c1-c1ccc(-c2c(N)on[n+]2CCCCCC)cc1 .
A. FALSE

Q. Now consider CC[N+](CC)(CC)CC.[C-]#[O+].[C-]#[O+].[C-]#[O+].[Cr+4].[c-]1[c-][c-][cH-][c-]1 .
A. FALSE

Q. Now consider Clc1ccc(C(c2ccc(Cl)cc2)c2ccccn2)cc1 .
A. TRUE

Q. Now consider CC1(C)OP(=O)(c2ccccc2)C=C1Br (configuration not stated) .
A. FALSE

Q. Now consider CN1CCC2(CC1)C(C#N)C(=O)NC(=O)C2C#N (configuration not stated) .
A. FALSE

Q. Now consider O=S(OO)c1cc(Cl)c(O)c(Cl)c1 (configuration not stated) .
A. FALSE

Q. Now consider NC(=O)NNc1ccc([N+](=O)[O-])cc1[N+](=O)[O-] .
A. FALSE

Q. Now consider CC(=N\O)/C(C)=N/O.CC(=N\O)/C(C)=N/O.CC(=N\O)/C(C)=N/O.CC(=N\O)/C(C)=N/O.[Cu].[Cu] .
A. FALSE

Q. Now consider CN(C)c1ccc(C(c2c(O)c3ccc(O)cc3oc2=O)c2c(O)c3ccc(O)cc3oc2=O)cc1 .
A. FALSE

Q. Now consider CCCC[S][Sn-]([CH2]CCC)([CH2]CCC)[CH2]CCC .
A. TRUE

Q. Now consider O=N[O-].O=N[O-].[NH2-].[NH2-].[NH2-].[NH2-].[Ni] .
A. FALSE

Q. Now consider O=C=Nc1ccc(Br)cc1 .
A. FALSE

Q. Now consider C[C@]12CCc3nonc3C1CC[C@@H]1C2CC[C@@]2(C)C1CC[C@@H]2O (some centres not stated) .
A. FALSE

Q. Now consider O=C(O)CCCO .
A. FALSE

Q. Now consider Cc1ccc2c(c1)Cc1ccccc1-2 .
A. FALSE

Q. Now consider COc1cccc2c1C(=O)c1c(O)c3c(c(O)c1C2=O)C[C@@](O)(C(=O)CO)C[C@@H]3OC1CC(N2CCOCC2C#N)C(O)C(C)O1 (some centres not stated) .
A. TRUE

Q. Now consider CNC1=C(C)C(=O)C2=C(C1=O)C(COC(N)=O)C1(OC)C3NC3CN21 (configuration not stated) .
A. FALSE

* * *

Please go through the items and note down their growth inhibition.
experiment: NCI Yeast Anticancer Drug Screen. Data for the mec2-1 strain (AID 157); conditions: S. cerevisiae mec2-1 strain, at 50.0 µM, active compounds read high
This is part of a sample that, as a whole, favours compounds with a hit. Of some 79,000 tested, about 15% had one in any assay.
Give bare numbers, in %.

Each molecule below has a reported value. Please supply its growth inhibition.
1. COc1cc2c(cc1OC)-c1c3c(cc4c1[C@@H](C2)N(C)CC4)OCO3
2. C[N+]1([O-])C2CCC1CC(OC(=O)C(O)c1ccccc1)C2 (stereo unspecified)
3. C=[CH][Sn]([CH]=C)([c]1ccccc1)[c]1ccccc1
4. Cc1ccc(N=C(C(c2ccccc2)c2ccccc2)N(CCCl)CCCl)cc1
5. NC1CC=C(COC(=O)C(O)(c2ccccc2)C2CC2)CC1 (stereo unspecified)

A.
-12.8
-21.2
-12.8
3.45
-14.7

Each molecule below has a reported value. Please supply its growth inhibition.
1. C=CCOC(=O)C(Br)CC (stereo unspecified)
2. CN(C)C1=C(N2CC2)C(=O)C(N(C)C)=C(N2CC2)C1=O

A.
[-3.2, 9.9]
